Numbers sourced from patent US10696707B2.

Experiment: Test Example 4: nephrotoxicity, kidney marker gene expression by quantitative RT-PCR after intravenous administration
Assay type: in vivo
Conditions: mouse, kidney, mice, nephrotoxicity positive when ΔΔCt of two-third of target genes (Kim1, Timp1, Lcn2) >3
Measured MTD values are reported for all entries that follow.
Numeric only. Scale: mg/kg

C[C@@H]1[C@H](O)[C@@H](C)/C=C/C=C/C=C/C=C/C=C/C=C/C=C/[C@H](O[C@@H]2O[C@H](C)[C@@H](O)[C@H](N)[C@@H]2O)C[C@@H]2O[C@](O)(C[C@@H](O)C[C@@H](O)[C@H](O)CC[C@@H](O)C[C@@H](O)CC(=O)O[C@H]1C)C[C@H](O)[C@H]2NC(=O)NO [I-219]
16
C[C@@H]1[C@H](O)[C@@H](C)/C=C/C=C/C=C/C=C/C=C/C=C/C=C/[C@H](O[C@@H]2O[C@H](C)[C@@H](O)[C@H](N)[C@@H]2O)C[C@@H]2O[C@](O)(C[C@@H](O)C[C@@H](O)[C@H](O)CC[C@@H](O)C[C@@H](O)CC(=O)O[C@H]1C)C[C@H](O)[C@H]2NC(=O)NCCN [AmBAU, reference compound]
12

--- query ---
## Task Please give the measured MTD for this compound: C[C@@H]1[C@H](O)[C@@H](C)/C=C/C=C/C=C/C=C/C=C/C=C/C=C/[C@H](O[C@@H]2O[C@H](C)[C@@H](O)[C@H](N)[C@@H]2O)C[C@@H]2O[C@](O)(C[C@@H](O)C[C@@H](O)[C@H](O)CC[C@@H](O)C[C@@H](O)CC(=O)O[C@H]1C)C[C@H](O)[C@H]2C(=O)NC(CO[C@H]1O[C@H](CO)[C@@H](O)[C@H](O)[C@@H]1O)CO[C@H]1O[C@H](CO)[C@@H](O)[C@H](O)[C@@H]1O [I-396]
## Result 16

----------
Tested on: red blood cells (5% RBC suspension)
Assay: Test Example 2-1: in vitro hemolytic activity test (upper limit 50, 80, 100 or 200 μmol/L)
Type: cell-based
Conditions: hemolysis method 100 (upper concentration 100 μmol/L); 5% RBC suspension, 37° C., one hour; read-out: hemolysis IC50
parameter: IC50 (µM)
Numeric only. Scale: µM

## Task Please give the measured IC50 for this compound: C[C@@H]1[C@H](O)[C@@H](C)/C=C/C=C/C=C/C=C/C=C/C=C/C=C/[C@H](O[C@@H]2O[C@H](C)[C@@H](O)[C@H](N)[C@@H]2O)C[C@@H]2O[C@](O)(C[C@@H](O)C[C@@H](O)[C@H](O)CC[C@@H](O)C[C@@H](O)CC(=O)O[C@H]1C)C[C@H](O)[C@H]2NC(=O)NC(CO)Cc1c[nH]cn1 (stereo partly drawn) [I-6]
## Result 75

## Task And what about the compound C[C@@H]1[C@H](O)[C@@H](C)/C=C/C=C/C=C/C=C/C=C/C=C/C=C/[C@H](O[C@@H]2O[C@H](C)[C@@H](O)[C@H](N)[C@@H]2O)C[C@@H]2O[C@](O)(C[C@@H](O)C[C@@H](O)[C@H](O)CC[C@@H](O)C[C@@H](O)CC(=O)O[C@H]1C)C[C@H](O)[C@H]2NC(=O)NCCCN1CCOCC1 [I-8] ?
## Result 96

## Task And what about the compound C[C@@H]1[C@H](O)[C@@H](C)/C=C/C=C/C=C/C=C/C=C/C=C/C=C/[C@H](O[C@@H]2O[C@H](C)[C@@H](O)[C@H](N)[C@@H]2O)C[C@@H]2O[C@](O)(C[C@@H](O)C[C@@H](O)[C@H](O)CC[C@@H](O)C[C@@H](O)CC(=O)O[C@H]1C)C[C@H](O)[C@H]2NC(=O)NC1CN(C)C1 [I-62] ?
## Result 50

## Task And what about the compound C[C@@H]1[C@H](O)[C@@H](C)/C=C/C=C/C=C/C=C/C=C/C=C/C=C/[C@H](O[C@@H]2O[C@H](C)[C@@H](O)[C@H](N)[C@@H]2O)C[C@@H]2O[C@](O)(C[C@@H](O)C[C@@H](O)[C@H](O)CC[C@@H](O)C[C@@H](O)CC(=O)O[C@H]1C)C[C@H](O)[C@H]2NC(=O)NCCCN(C)C [I-7] ?
## Result 81
